system: HeLa; test: Cytostatic activity against human HeLa cells […] by cell counting; assay type: functional, cell-based
observable: pIC50
Please keep in mind that pIC50 is minus log10 of the molar concentration; only the number is needed.

// sample CCCCCOC(=O)[C@H](C)NP(=O)(OC[C@H]1O[C@@H](n2cc(F)c(=O)[nH]c2=O)C[C@@H]1O)Oc1cccc2ccccc12 (mixture of isomers) , its pIC50 was 7.54

// sample CCOC(=O)C(C)(C)NP(=O)(OC[C@H]1O[C@@H](n2cc(F)c(=O)[nH]c2=O)C[C@@H]1O)Oc1cccc2ccccc12 (mixture of isomers) , its pIC50 was 6.70

// sample CC(C)OC(=O)[C@H](C)NP(=O)(OC[C@H]1O[C@@H](n2cc(F)c(=O)[nH]c2=O)C[C@@H]1O)Oc1ccccc1 (mixture of isomers) , its pIC50 was 6.15

// sample CSCC[C@H](NP(=O)(OC[C@H]1O[C@@H](n2cc(F)c(=O)[nH]c2=O)C[C@@H]1O)Oc1ccccc1)C(=O)OCc1ccccc1 (mixture of isomers) , its pIC50 was 6.82

----------
system: L1210; assay: Ratio of IC50 for Mycoplasma hyorhinis-infected mouse L1210 cells to IC50 for mouse L1210/0 cells after 48 hrs by cell counting; type: functional
As shown below, each of these compounds has a reported Ratio IC50 value.
// no unit string in output, number only

Here are 3 compounds together with their reported answers.
CC(C)OC(=O)[C@H](C)NP(=O)(OC[C@H]1O[C@@H](n2cc(F)c(=O)[nH]c2=O)C[C@@H]1O)Oc1ccccc1 (mixture of isomers)	14
CCCCCOC(=O)[C@H](CCSC)NP(=O)(OC[C@H]1O[C@@H](n2cc(F)c(=O)[nH]c2=O)C[C@@H]1O)Oc1ccccc1 (mixture of isomers)	3.2
C[C@H](NP(=O)(OC[C@H]1O[C@@H](n2cc(F)c(=O)[nH]c2=O)C[C@@H]1O)Oc1cccc2ccccc12)C(=O)OCC(C)(C)C (mixture of isomers)	1.9

// sample CC(C)(NP(=O)(OC[C@H]1O[C@@H](n2cc(F)c(=O)[nH]c2=O)C[C@@H]1O)Oc1cccc2ccccc12)C(=O)OCc1ccccc1 (mixture of isomers) , its Ratio IC50 was 2.4

----------
test system: L1210; assay: Cytostatic activity against Mycoplasma hyorhinis-infected mouse L1210 cells after 48 hrs by cell counting; type: functional, cell-based; settings: L1210, 48 h
As shown below, each of these molecules has a reported pIC50 value.
Please keep in mind that pIC50 is minus log10 of the molar concentration; only the number is needed.

CCCCCOC(=O)C(C)(C)NP(=O)(OC[C@H]1O[C@@H](n2cc(F)c(=O)[nH]c2=O)C[C@@H]1O)Oc1cccc2ccccc12 (mixture of isomers)	7.72
C[C@H](NP(=O)(OC[C@H]1O[C@@H](n2cc(F)c(=O)[nH]c2=O)C[C@@H]1O)Oc1ccccc1)C(=O)OCc1ccccc1 (mixture of isomers)	6.82
CCOC(=O)[C@H](C)NP(=O)(OC[C@H]1O[C@@H](n2cc(F)c(=O)[nH]c2=O)C[C@@H]1O)Oc1ccccc1 (mixture of isomers)	6.27

// sample CC(C)(NP(=O)(OC[C@H]1O[C@@H](n2cc(F)c(=O)[nH]c2=O)C[C@@H]1O)Oc1cccc2ccccc12)C(=O)OCc1ccccc1 (mixture of isomers) , its pIC50 was 7.35

// sample CCCCOC(=O)[C@H](C)NP(=O)(OC[C@H]1O[C@@H](n2cc(F)c(=O)[nH]c2=O)C[C@@H]1O)Oc1cccc2ccccc12 (mixture of isomers) , its pIC50 was 7.68

----------
system: HeLa; test: Cytostatic activity against human HeLa cells […] by cell counting; assay type: functional, cell-based
observable: pIC50
Please keep in mind that pIC50 is minus log10 of the molar concentration; only the number is needed.

Here are 5 compounds together with their reported answers.
CCCCCCOC(=O)[C@H](C)NP(=O)(OC[C@H]1O[C@@H](n2cc(F)c(=O)[nH]c2=O)C[C@@H]1O)Oc1cccc2ccccc12 (mixture of isomers)	7.41
O=c1[nH]c(=O)n([C@H]2C[C@H](O)[C@@H](CO)O2)cc1F [FLOXURIDINE]	7.30
CC(C)[C@H](NP(=O)(OC[C@H]1O[C@@H](n2cc(F)c(=O)[nH]c2=O)C[C@@H]1O)Oc1cccc2ccccc12)C(=O)OC1CCCCC1 (mixture of isomers)	6.17
CC(C)(NP(=O)(OC[C@H]1O[C@@H](n2cc(F)c(=O)[nH]c2=O)C[C@@H]1O)Oc1cccc2ccccc12)C(=O)OCc1ccccc1 (mixture of isomers)	7.11
CCCOC(=O)[C@H](C)NP(=O)(OC[C@H]1O[C@@H](n2cc(F)c(=O)[nH]c2=O)C[C@@H]1O)Oc1cccc2ccccc12 (mixture of isomers)	6.96

// sample CC(C)(NP(=O)(OC[C@H]1O[C@@H](n2cc(F)c(=O)[nH]c2=O)C[C@@H]1O)Oc1ccccc1)C(=O)OCc1ccccc1 (mixture of isomers) , its pIC50 was 6.62

// sample CCCCCOC(=O)[C@@H](NP(=O)(OC[C@H]1O[C@@H](n2cc(F)c(=O)[nH]c2=O)C[C@@H]1O)Oc1cccc2ccccc12)[C@@H](C)CC (mixture of isomers) , its pIC50 was 6.52

// sample CCOC(=O)C(C)(C)NP(=O)(OC[C@H]1O[C@@H](n2cc(F)c(=O)[nH]c2=O)C[C@@H]1O)Oc1ccccc1 (mixture of isomers) , its pIC50 was 6.23

// sample CCCCCOC(=O)C(C)(C)NP(=O)(OC[C@H]1O[C@@H](n2cc(F)c(=O)[nH]c2=O)C[C@@H]1O)Oc1cccc2ccccc12 (mixture of isomers) , its pIC50 was 6.92

// sample CC[C@H](C)[C@H](NP(=O)(OC[C@H]1O[C@@H](n2cc(F)c(=O)[nH]c2=O)C[C@@H]1O)Oc1ccccc1)C(=O)OCc1ccccc1 (mixture of isomers) , its pIC50 was 6.15

// sample COC(=O)[C@H](C)NP(=O)(OC[C@H]1O[C@@H](n2cc(F)c(=O)[nH]c2=O)C[C@@H]1O)Oc1ccccc1 (mixture of isomers) , its pIC50 was 6.55

// sample O=C(OCc1ccccc1)[C@@H]1CCCN1P(=O)(OC[C@H]1O[C@@H](n2cc(F)c(=O)[nH]c2=O)C[C@@H]1O)Oc1ccccc1 (mixture of isomers) , its pIC50 was 5.96

----------
experiment: Half life in Trizma buffer at pH 7.6 at 3 mg by [31P]NMR spectroscopy in presence of carboxypeptidase Y; format: physicochemical; conditions: yeast (Saccharomyces cerevisiae)
observable: half-life

// sample CCCCCOC(=O)[C@H](C)NP(=O)(OC[C@H]1O[C@@H](n2cc(F)c(=O)[nH]c2=O)C[C@@H]1O)Oc1cccc2ccccc12 (mixture of isomers) , its half-life was < 5 min

----------
As shown below, each of these molecules has a reported Ratio IC50 value.
system: L1210; assay: Ratio of IC50 for Mycoplasma hyorhinis-infected mouse L1210 cells to IC50 for mouse L1210/0 cells after 48 hrs by cell counting; format: functional

Here are 3 molecules together with their reported answers.
C[C@H](NP(=O)(OC[C@H]1O[C@@H](n2cc(F)c(=O)[nH]c2=O)C[C@@H]1O)Oc1cccc2ccccc12)C(=O)OC1CCCC1 (mixture of isomers)	1.5
COC(=O)[C@H](C)NP(=O)(OC[C@H]1O[C@@H](n2cc(F)c(=O)[nH]c2=O)C[C@@H]1O)Oc1ccccc1 (mixture of isomers)	22
CCCCCCOC(=O)[C@H](C)NP(=O)(OC[C@H]1O[C@@H](n2cc(F)c(=O)[nH]c2=O)C[C@@H]1O)Oc1cccc2ccccc12 (mixture of isomers)	0.69

// sample CC(C)[C@H](NP(=O)(OC[C@H]1O[C@@H](n2cc(F)c(=O)[nH]c2=O)C[C@@H]1O)Oc1cccc2ccccc12)C(=O)OC1CCCCC1 (mixture of isomers) , its Ratio IC50 was 1.08

// sample CC(C)C[C@H](NP(=O)(OC[C@H]1O[C@@H](n2cc(F)c(=O)[nH]c2=O)C[C@@H]1O)Oc1ccccc1)C(=O)OCc1ccccc1 (mixture of isomers) , its Ratio IC50 was 3.2

// sample O=C(OCc1ccccc1)[C@H](Cc1ccccc1)NP(=O)(OC[C@H]1O[C@@H](n2cc(F)c(=O)[nH]c2=O)C[C@@H]1O)Oc1cccc2ccccc12 (mixture of isomers) , its Ratio IC50 was 11

----------
As shown below, each of these compounds has a reported Ratio IC50 value.
test system: L1210; experiment: Ratio of IC50 for Mycoplasma hyorhinis-infected mouse L1210 cells to IC50 for mouse L1210/0 cells after 48 hrs by cell counting; assay type: functional
// no unit string in output, number only

Here are 2 compounds together with their reported answers.
CSCC[C@H](NP(=O)(OC[C@H]1O[C@@H](n2cc(F)c(=O)[nH]c2=O)C[C@@H]1O)Oc1ccccc1)C(=O)OCc1ccccc1 (mixture of isomers)	13
C[C@H](NP(=O)(OC[C@H]1O[C@@H](n2cc(F)c(=O)[nH]c2=O)C[C@@H]1O)Oc1ccccc1)C(=O)OCc1ccccc1 (mixture of isomers)	5.8

// sample CCOC(=O)[C@H](C)NP(=O)(OC[C@H]1O[C@@H](n2cc(F)c(=O)[nH]c2=O)C[C@@H]1O)Oc1cccc2ccccc12 (mixture of isomers) , its Ratio IC50 was 3.4

// sample C[C@H](NP(=O)(OC[C@H]1O[C@@H](n2cc(F)c(=O)[nH]c2=O)C[C@@H]1O)Oc1cccc2ccccc12)C(=O)OCc1ccccc1 (mixture of isomers) [FOSIFLOXURIDINE NAFALBENAMIDE] , its Ratio IC50 was 2.27

// sample CC(C)(NP(=O)(OC[C@H]1O[C@@H](n2cc(F)c(=O)[nH]c2=O)C[C@@H]1O)Oc1ccccc1)C(=O)OCc1ccccc1 (mixture of isomers) , its Ratio IC50 was 0.69

// sample O=C(OCc1ccccc1)[C@H](Cc1ccccc1)NP(=O)(OC[C@H]1O[C@@H](n2cc(F)c(=O)[nH]c2=O)C[C@@H]1O)Oc1ccccc1 (mixture of isomers) , its Ratio IC50 was 35

// sample CC(C)C[C@H](NP(=O)(OC[C@H]1O[C@@H](n2cc(F)c(=O)[nH]c2=O)C[C@@H]1O)Oc1cccc2ccccc12)C(=O)OCc1ccccc1 (mixture of isomers) , its Ratio IC50 was 1.7

// sample CCCCCOC(=O)C(C)(C)NP(=O)(OC[C@H]1O[C@@H](n2cc(F)c(=O)[nH]c2=O)C[C@@H]1O)Oc1cccc2ccccc12 (mixture of isomers) , its Ratio IC50 was 0.42

// sample CCCCCOC(=O)[C@H](Cc1ccccc1)NP(=O)(OC[C@H]1O[C@@H](n2cc(F)c(=O)[nH]c2=O)C[C@@H]1O)Oc1cccc2ccccc12 (mixture of isomers) , its Ratio IC50 was 4.67

// sample C[C@H](NP(=O)(OC[C@H]1O[C@@H](n2cc(F)c(=O)[nH]c2=O)C[C@@H]1O)Oc1cccc2ccccc12)C(=O)OCCC(C)(C)C (mixture of isomers) , its Ratio IC50 was 2.7

// sample CCCOC(=O)[C@H](C)NP(=O)(OC[C@H]1O[C@@H](n2cc(F)c(=O)[nH]c2=O)C[C@@H]1O)Oc1cccc2ccccc12 (mixture of isomers) , its Ratio IC50 was 1.2
